# system.name: HER2 GSP (Ba/F3 cells) (Homo sapiens, UniProt P04626, INS780GSP)
# Construct: expressed in transfected cells; host or cells: Ba/F3
# Sequence (P04626 with tags, fused parts or gaps INS780GSP): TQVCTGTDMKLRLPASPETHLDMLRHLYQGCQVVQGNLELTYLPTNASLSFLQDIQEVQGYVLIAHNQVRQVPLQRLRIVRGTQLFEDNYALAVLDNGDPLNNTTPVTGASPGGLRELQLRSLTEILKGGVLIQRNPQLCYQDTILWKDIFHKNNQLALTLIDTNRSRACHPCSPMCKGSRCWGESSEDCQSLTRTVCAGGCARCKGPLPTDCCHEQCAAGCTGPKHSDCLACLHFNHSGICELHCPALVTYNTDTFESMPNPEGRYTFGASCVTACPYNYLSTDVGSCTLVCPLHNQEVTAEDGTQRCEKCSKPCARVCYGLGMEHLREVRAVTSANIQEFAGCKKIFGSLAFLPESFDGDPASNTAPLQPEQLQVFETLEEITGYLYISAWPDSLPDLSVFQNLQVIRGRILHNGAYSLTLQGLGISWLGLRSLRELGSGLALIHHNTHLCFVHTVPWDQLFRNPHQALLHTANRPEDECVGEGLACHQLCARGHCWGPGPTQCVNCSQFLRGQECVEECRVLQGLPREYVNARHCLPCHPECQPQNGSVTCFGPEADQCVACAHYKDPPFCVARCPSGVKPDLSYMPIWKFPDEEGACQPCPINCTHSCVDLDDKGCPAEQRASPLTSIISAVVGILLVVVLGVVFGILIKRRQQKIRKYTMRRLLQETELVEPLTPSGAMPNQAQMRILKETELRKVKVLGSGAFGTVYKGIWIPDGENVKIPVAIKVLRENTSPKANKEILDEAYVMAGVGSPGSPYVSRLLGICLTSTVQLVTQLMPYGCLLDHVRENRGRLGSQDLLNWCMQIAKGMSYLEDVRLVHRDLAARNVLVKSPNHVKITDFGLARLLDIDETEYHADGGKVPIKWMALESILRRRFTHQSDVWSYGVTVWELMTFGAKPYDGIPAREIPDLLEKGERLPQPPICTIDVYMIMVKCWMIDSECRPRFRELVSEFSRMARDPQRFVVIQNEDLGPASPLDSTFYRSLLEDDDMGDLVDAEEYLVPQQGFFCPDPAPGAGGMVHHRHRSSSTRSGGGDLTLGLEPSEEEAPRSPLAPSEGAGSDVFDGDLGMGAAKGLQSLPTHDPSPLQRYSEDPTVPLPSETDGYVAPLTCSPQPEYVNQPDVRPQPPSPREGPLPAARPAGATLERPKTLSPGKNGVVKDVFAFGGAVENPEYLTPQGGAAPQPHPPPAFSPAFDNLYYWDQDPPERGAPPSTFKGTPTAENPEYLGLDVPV
# protocol: MTS assay, Ba/F3 cells, HER2 GSP
# Type: cell-based
# study.conditions: 72 hours
This section presents compounds with their documented IC50 values.

compound: C=CC(=O)N1CCC[C@@H](n2nc(C(=O)Nc3ccc(Oc4ccn5ncnc5c4)c(C)c3)c3c(N)ncnc32)C1
IC50, µM: 0.0958
--
compound: C=CC(=O)N1CCC[C@@H](n2nc(C(=O)Nc3ccc(C(=O)N4CCn5ncnc5C4)c(C)c3)c3c(N)ncnc32)C1
IC50, µM: 6.29
--
compound: C=CC(=O)N1CCC[C@@H](n2nc(C(=O)Nc3ccc(CC(=O)N(C)C)c(C)c3C)c3c(N)ncnc32)C1 [TAS0728, reference compound]
IC50, µM: 0.0643
--
compound: C=CC(=O)N1CCC[C@@H](n2nc(C(=O)Nc3ccc(Oc4ccn5ncnc5c4)c(C)c3C)c3c(N)ncnc32)C1
IC50, µM: 0.0567
--
compound: C=CC(=O)N1CCC[C@@H](n2nc(C(=O)Nc3ccc(C(=O)N4CCn5ccnc5C4)c(C)c3)c3c(N)ncnc32)C1
IC50, µM: 5.64
--
compound: C=CC(=O)N1CCC[C@@H](n2nc(C(=O)Nc3ccc(Cn4ccnc4)c(C)c3)c3c(N)ncnc32)C1
IC50, µM: 1.44
--
compound: C=CC(=O)N1CCC[C@@H](n2nc(C(=O)Nc3cc(C)cc(CC(=O)N(C)C)c3)c3c(N)ncnc32)C1
IC50, µM: 2.39
--
compound: C=CC(=O)N1CCC[C@@H](n2nc(C(=O)Nc3ccc(Oc4ccn5ncnc5c4)c(Cl)c3)c3c(N)ncnc32)C1
IC50, µM: 0.0786
--
compound: C=CC(=O)N1CCC[C@@H](n2nc(C(=O)Nc3ccc(CN4CCn5ncnc5C4)c(C)c3)c3c(N)ncnc32)C1
IC50, µM: 1.39
--
compound: C=CC(=O)N1CCC[C@@H](n2nc(C(=O)Nc3ccc(CN4CCn5ccnc5C4)c(C)c3)c3c(N)ncnc32)C1
IC50, µM: 1.29

These measurements were taken from patent US20230295167A1.
